test system: UniProt:Q01827
Sequence (Q01827 whole entry): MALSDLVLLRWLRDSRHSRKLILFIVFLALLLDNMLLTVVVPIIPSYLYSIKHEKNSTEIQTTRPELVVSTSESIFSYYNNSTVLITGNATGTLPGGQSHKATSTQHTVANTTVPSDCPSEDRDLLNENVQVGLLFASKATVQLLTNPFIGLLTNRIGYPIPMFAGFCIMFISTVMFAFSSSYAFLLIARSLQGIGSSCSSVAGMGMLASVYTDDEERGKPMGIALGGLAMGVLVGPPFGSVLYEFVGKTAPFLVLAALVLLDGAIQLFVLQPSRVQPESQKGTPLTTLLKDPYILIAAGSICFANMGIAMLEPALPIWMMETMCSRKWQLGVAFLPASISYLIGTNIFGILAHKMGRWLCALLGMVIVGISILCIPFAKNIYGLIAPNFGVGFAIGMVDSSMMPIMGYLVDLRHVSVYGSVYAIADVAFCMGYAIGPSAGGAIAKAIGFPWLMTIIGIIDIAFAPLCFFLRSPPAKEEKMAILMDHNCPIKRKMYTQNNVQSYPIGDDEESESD
assay name: [3H]-DA uptake inhibition assay in isolated synaptic vesicles
settings: uptake vs DTBZ binding
measure name: fold more potent in inhibiting [3H]-DA uptake than in binding to the DTBZ binding site

CN1[C@H](CCCc2ccccc2)CC[C@@H]1CCCc1ccccc1	about 20 fold
c1ccc(CCC[C@@H]2CC[C@H](CCCc3ccccc3)N2)cc1	about 20 fold
c1ccc(CC[C@@H]2CC[C@H](CCc3ccccc3)N2)cc1	about 100 fold
c1ccc(CC[C@H]2CCC[C@@H](CCc3ccccc3)N2)cc1 [Compound 3, reference compound]	about 100 fold
